# Tested on: KM20L2 colon
# procedure details: NCI tumour cell line growth inhibition, 48 h
measured parameter: TGI

>  <compound>
N#C/C(=C1/Sc2c(nc[nH]c2=O)N1c1ccccc1)c1nc2ccccc2[nH]1

>  <subject of test>
KM20L2 colon

>  <TGI>
> 100 µM

$$$$
>  <compound>
CC1=C(Cl)C=CP(=O)(Oc2ccccc2)C1 (centres undefined)

>  <subject of test>
KM20L2 colon

>  <TGI>
> 100 µM

$$$$
>  <compound>
O=C1C=C[C@@H](COC2OC(CO)C(O)C(O)C2O)O1 (some centres undefined)

>  <subject of test>
KM20L2 colon

>  <TGI>
38 µM

$$$$
>  <compound>
Cc1ccc(Oc2ccc(C)cc2N)cc1

>  <subject of test>
KM20L2 colon

>  <TGI>
> 100 µM

$$$$
>  <compound>
Nc1nc(SCCC/C=C/I)nc2c1ncn2C1OC(COP(=O)(O)O)C(O)C1O (centres undefined)

>  <subject of test>
KM20L2 colon

>  <TGI>
> 100 µM

$$$$
>  <compound>
O=c1ccc2ccccc2cc1[O-].O=c1ccc2ccccc2cc1[O-].[O]=[U+2]=[O]

>  <subject of test>
KM20L2 colon

>  <TGI>
90.1 µM

$$$$
>  <compound>
COC(=O)C(CCCN1C(=O)c2ccccc2C1=O)C(=O)OC

>  <subject of test>
KM20L2 colon

>  <TGI>
> 100 µM

$$$$
>  <compound>
C=CC[C@H](C[C@H](C[C@H](C[C@H](C[C@H](C[C@H](C[C@H](C[C@H](C[C@H](C[C@H](CCCCC)OC)OC)OC)OC)OC)OC)OC)OC)OC)OC

>  <subject of test>
KM20L2 colon

>  <TGI>
> 100 µM

$$$$
>  <compound>
COc1ccc(/C=c2\sc3n(c2=O)CCN=3)cc1

>  <subject of test>
KM20L2 colon

>  <TGI>
> 100 µM

$$$$
>  <compound>
CC(=O)O/N=C(/C)c1ccccc1O

>  <subject of test>
KM20L2 colon

>  <TGI>
> 100 µM

$$$$

Prompt line: Name the recorded TGI for CCOC(=O)C1=C(C(=O)OCC)C2c3ccccc3C=CN2C(C(=O)OCC)=C(SC)S1 (centres undefined) .
Response line: > 100 µM

Prompt line: Name the recorded TGI for COc1ccc2[nH]cc(/C=C(/C)c3ccncc3)c2c1 .
Response line: 8.67 µM

Prompt line: Name the recorded TGI for N#C/C(=C\c1cccc(Cl)c1Cl)c1ccccc1 .
Response line: > 100 µM

Prompt line: Name the recorded TGI for S=c1sc2c(n1-c1ccccc1)NC=NC2S (centres undefined) .
Response line: > 100 µM
